Biological target: human Cav1.2 (Homo sapiens)
PROPERTY_MEASURED: EC50 (nM)
Provide only the numeric value, understood in nM.

Problem: Quick one: EC50 for COC(=O)C1=C(C)NC2=C(C(=O)OC2)[C@H]1c1cccc(F)c1C1CC1(F)F (single isomer, unassigned) ?
Result: 170

---

Target: human Cav1.2 (Homo sapiens)
Assay: Sophion QPatch whole-cell voltage clamp dose-response assay, Cav1.2-HEK293(AUX) cell line (barium currents)
Settings: maximal fold change of peak inward current
Kindly state QPatch Emax for each of the entries shown.
Form: value (number only, do not type unit).

Problem: Quick one: QPatch Emax for COC(=O)C1=C(C)NC2=C(C(=O)OC2)[C@H]1c1cccc(F)c1C1CCC1 (single isomer, unassigned) ?
Result: 1.8

Problem: Quick one: QPatch Emax for COC(=O)C1=C(C)NC2=C(C(=O)OC2)[C@H]1c1cccc(F)c1[C@H](C)F (single isomer, unassigned) ?
Result: 2.2

Problem: Quick one: QPatch Emax for CCc1c(F)cccc1[C@H]1C(C(=O)OC)=C(C)NC2=C1C(=O)OC2 (single isomer, unassigned) ?
Result: 1.5

Problem: Quick one: QPatch Emax for "COC(=O)C1=C(C)NC2=C(C(=O)OC2)[C@H]1c1cccc(F)c1CC(F)F" ?
Result: 1.8

Problem: Quick one: QPatch Emax for COC(=O)C1=C(C)NC2=C(C(=O)OC2)[C@H]1c1cccc(F)c1C(C)C (single isomer, unassigned) ?
Result: 2

Problem: Quick one: QPatch Emax for C=C(c1c(F)cc(F)cc1[C@H]1C(C(=O)OC)=C(C)NC2=C1C(=O)OC2)C(F)(F)F (single isomer, unassigned) ?
Result: 1.7

Problem: Quick one: QPatch Emax for COC(=O)C1=C(C)NC2=C(C(=O)OC2)[C@H]1c1cccc(F)c1CC(F)(F)F (single isomer, unassigned) ?
Result: 1.5

---

Kindly state QPatch Emax for each of the entries shown.
Target: human Cav1.2 (Homo sapiens)
Assay: Sophion QPatch whole-cell voltage clamp dose-response assay, Cav1.2-HEK293(AUX) cell line (barium currents)
Conditions: maximal fold change of peak inward current

Problem: Quick one: QPatch Emax for COC(=O)C1=C(C)NC2=C(C(=O)OC2)[C@H]1c1cc(F)cc(F)c1C1CC1 (single isomer, unassigned) [Example 14] ?
Result: 1.8

Problem: Quick one: QPatch Emax for COC(=O)C1=C(C)NC2=C(C(=O)OC2)[C@H]1c1cccc(F)c1C1CC(F)C1 (single isomer, unassigned) [Example 20] ?
Result: 1.6

Problem: Quick one: QPatch Emax for COC(=O)C1=C(C)NC2=C(C(=O)OC2)[C@H]1c1cccc(F)c1[C@H]1CC1(F)F (single isomer, unassigned) [Example 1] ?
Result: 2.0

Problem: Quick one: QPatch Emax for COC(=O)C1=C(C)NC2=C(C(=O)OC2)[C@H]1c1cccc(F)c1C1CC1(F)F (single isomer, unassigned) [Example 2] ?
Result: 1.6

Problem: Quick one: QPatch Emax for C=C(c1c(F)cccc1[C@H]1C(C(=O)OC)=C(C)NC2=C1C(=O)OC2)C(F)(F)F [Example 16] ?
Result: 1.5

Problem: Quick one: QPatch Emax for CCc1c(F)cc(F)cc1[C@H]1C(C(=O)OC)=C(C)NC2=C1C(=O)OC2 (single isomer, unassigned) [Example 12] ?
Result: 1.4

Problem: Quick one: QPatch Emax for COC(=O)C1=C(C)NC2=C(C(=O)OC2)[C@H]1c1cccc(F)c1C(C)(C)F (single isomer, unassigned) [Example 8] ?
Result: 1.6

---

Molecular target: human Cav1.2 (Homo sapiens, UniProt Q13936)
Sequence (Q13936 whole entry): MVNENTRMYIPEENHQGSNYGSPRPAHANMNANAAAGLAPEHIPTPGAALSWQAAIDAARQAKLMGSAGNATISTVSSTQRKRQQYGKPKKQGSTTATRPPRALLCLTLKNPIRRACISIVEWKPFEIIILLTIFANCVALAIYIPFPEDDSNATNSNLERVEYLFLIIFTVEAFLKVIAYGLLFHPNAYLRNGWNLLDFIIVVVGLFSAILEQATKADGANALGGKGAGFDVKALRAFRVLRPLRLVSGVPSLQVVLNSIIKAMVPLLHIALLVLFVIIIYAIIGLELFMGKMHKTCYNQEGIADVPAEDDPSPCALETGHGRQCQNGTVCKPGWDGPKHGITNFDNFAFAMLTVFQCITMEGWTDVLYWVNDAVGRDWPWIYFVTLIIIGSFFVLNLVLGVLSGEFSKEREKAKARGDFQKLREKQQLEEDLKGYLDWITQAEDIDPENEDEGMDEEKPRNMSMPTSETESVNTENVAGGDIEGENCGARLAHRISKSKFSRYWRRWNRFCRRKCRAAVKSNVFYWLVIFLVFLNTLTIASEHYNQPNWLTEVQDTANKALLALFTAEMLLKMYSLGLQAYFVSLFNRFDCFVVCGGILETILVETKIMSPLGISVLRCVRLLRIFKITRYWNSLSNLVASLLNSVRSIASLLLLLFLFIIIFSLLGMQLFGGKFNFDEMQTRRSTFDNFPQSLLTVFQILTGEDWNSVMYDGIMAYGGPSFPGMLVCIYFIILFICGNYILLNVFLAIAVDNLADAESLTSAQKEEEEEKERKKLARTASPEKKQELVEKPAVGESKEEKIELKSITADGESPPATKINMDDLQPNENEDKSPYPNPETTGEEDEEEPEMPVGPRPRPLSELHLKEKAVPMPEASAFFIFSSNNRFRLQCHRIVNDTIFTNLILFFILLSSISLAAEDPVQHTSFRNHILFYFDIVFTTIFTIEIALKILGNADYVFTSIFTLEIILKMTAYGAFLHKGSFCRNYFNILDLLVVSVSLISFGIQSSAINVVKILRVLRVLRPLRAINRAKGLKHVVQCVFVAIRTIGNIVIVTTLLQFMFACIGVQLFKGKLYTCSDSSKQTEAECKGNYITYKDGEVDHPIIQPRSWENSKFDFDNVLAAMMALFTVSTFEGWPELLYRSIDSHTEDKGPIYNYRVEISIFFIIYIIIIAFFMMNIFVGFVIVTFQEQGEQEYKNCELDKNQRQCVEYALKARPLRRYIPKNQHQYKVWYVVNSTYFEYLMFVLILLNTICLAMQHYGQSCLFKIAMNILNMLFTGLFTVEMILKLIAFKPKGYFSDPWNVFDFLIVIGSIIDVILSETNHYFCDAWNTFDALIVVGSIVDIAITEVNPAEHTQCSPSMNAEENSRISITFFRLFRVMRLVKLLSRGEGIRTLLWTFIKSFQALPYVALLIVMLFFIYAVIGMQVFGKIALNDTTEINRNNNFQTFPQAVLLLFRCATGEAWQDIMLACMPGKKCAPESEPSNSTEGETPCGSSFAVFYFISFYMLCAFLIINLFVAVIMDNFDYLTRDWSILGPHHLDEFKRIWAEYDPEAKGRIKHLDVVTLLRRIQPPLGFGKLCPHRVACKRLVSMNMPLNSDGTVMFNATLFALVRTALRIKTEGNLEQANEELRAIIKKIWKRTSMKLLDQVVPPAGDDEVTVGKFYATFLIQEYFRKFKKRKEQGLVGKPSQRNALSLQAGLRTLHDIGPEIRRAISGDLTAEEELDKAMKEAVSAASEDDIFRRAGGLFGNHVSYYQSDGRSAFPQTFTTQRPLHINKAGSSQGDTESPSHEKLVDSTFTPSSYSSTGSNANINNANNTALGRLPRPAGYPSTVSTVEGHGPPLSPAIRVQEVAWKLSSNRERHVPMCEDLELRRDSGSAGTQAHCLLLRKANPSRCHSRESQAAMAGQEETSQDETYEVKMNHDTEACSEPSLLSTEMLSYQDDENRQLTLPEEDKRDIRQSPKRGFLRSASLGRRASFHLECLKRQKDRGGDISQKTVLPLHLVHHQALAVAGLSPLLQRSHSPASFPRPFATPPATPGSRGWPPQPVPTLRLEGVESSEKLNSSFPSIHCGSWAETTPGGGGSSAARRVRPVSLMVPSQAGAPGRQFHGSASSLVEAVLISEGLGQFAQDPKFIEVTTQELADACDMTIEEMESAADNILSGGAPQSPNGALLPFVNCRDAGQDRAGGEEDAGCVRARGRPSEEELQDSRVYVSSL
Sequence (Q9NY47 19-1001 partner limits assumed): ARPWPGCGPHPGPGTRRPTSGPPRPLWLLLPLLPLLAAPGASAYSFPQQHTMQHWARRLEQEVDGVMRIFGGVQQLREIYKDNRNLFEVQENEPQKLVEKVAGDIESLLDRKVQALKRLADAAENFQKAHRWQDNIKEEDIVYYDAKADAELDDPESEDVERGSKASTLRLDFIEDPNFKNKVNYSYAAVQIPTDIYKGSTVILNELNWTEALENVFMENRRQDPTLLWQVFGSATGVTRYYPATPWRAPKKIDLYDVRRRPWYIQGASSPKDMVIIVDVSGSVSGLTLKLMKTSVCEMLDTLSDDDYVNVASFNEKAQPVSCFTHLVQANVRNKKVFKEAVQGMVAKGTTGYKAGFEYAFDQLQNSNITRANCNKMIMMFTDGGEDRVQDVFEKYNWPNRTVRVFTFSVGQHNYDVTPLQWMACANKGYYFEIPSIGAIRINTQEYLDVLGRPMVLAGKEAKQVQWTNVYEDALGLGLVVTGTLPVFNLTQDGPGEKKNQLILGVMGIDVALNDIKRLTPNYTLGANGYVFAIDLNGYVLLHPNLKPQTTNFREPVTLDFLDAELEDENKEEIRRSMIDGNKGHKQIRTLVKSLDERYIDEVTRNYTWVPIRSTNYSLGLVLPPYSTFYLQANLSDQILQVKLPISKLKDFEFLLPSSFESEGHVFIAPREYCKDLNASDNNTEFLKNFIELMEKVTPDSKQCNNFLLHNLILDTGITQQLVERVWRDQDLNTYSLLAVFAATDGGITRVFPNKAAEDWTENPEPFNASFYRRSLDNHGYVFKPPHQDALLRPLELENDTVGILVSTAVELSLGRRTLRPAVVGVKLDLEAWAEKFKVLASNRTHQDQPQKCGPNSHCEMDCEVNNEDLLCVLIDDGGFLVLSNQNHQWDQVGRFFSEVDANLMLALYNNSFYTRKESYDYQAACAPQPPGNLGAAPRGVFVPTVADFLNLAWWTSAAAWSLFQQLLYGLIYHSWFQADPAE
Sequence (Q9NY47 1002-1150 partner limits assumed): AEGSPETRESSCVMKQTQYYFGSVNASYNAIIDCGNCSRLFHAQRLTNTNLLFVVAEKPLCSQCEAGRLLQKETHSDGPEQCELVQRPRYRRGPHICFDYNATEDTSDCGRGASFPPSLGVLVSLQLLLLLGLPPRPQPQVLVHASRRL
Sequence (Q08289 whole entry partner): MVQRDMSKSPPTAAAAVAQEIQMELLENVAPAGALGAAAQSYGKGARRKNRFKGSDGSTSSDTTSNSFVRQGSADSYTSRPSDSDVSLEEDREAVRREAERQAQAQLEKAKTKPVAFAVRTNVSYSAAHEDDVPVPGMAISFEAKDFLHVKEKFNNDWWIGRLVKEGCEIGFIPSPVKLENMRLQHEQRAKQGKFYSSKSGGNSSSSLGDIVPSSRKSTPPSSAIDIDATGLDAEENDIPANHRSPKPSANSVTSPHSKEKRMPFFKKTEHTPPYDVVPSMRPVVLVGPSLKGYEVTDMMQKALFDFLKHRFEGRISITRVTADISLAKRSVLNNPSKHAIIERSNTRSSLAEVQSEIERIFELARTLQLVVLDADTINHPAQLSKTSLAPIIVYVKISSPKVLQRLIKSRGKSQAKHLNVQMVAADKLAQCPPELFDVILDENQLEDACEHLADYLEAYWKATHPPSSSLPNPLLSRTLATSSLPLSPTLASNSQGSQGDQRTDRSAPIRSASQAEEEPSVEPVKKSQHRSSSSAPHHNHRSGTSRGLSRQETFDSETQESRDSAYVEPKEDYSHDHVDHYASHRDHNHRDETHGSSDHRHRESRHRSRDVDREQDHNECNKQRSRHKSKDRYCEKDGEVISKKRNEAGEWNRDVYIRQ
Assay: QPatch channel biophysics assay (current-voltage relationship, V1/2, tau of inactivation), Cav1.2-HEK293(AUX) cell line; also: test concentration or dose not given here
Assay type: cell-based
Parameters: expressed in transfected cells; host or cells: Flp-In 293 T-Rex (HEK293), clone 2-19B, stably transfected with pCMV6-entry-CACNA1C and pcDNA5H/FRT-TO-CACNA2D2-FCS-P2A-CACNB2
Conditions: shift of half-way channel activation voltage (V1/2)
Could you label it T if measured Biophysics voltage shift is -5 mV or higher, and F otherwise?

Problem: Answer whether Biophysics voltage shift of CCc1c(F)cccc1[C@H]1C(C(=O)OC)=C(C)NC2=C1C(=O)OC2 (single isomer, unassigned) is greater than or equal to -5 mV.
Result: T

Problem: Answer whether Biophysics voltage shift of COC(=O)C1=C(C)NC2=C(C(=O)OC2)[C@H]1c1cc(F)cc(F)c1C1CC1 (single isomer, unassigned) is greater than or equal to -5 mV.
Result: T

Problem: Answer whether Biophysics voltage shift of COC(=O)C1=C(C)NC2=C(C(=O)OC2)[C@H]1c1cccc(F)c1C1CCC1 (single isomer, unassigned) is greater than or equal to -5 mV.
Result: F

Problem: Answer whether Biophysics voltage shift of COC(=O)C1=C(C)NC2=C(C(=O)OC2)[C@H]1c1cc(F)cc(F)c1[C@H]1CC1(F)F (single isomer, unassigned) [Example 6] is greater than or equal to -5 mV.
Result: T

Problem: Answer whether Biophysics voltage shift of COC(=O)C1=C(C)NC2=C(C(=O)OC2)[C@H]1c1cc(F)cc(F)c1[C@H]1CC1(F)F (single isomer, unassigned) [Example 5] is greater than or equal to -5 mV.
Result: F

Problem: Answer whether Biophysics voltage shift of COC(=O)C1=C(C)NC2=C(C(=O)OC2)[C@H]1c1cccc(F)c1C1CC(F)C1 (single isomer, unassigned) is greater than or equal to -5 mV.
Result: F

Problem: Answer whether Biophysics voltage shift of COC(=O)C1=C(C)NC2=C(C(=O)OC2)[C@H]1c1cccc(F)c1C1CC1(F)F (single isomer, unassigned) is greater than or equal to -5 mV.
Result: T

Problem: Answer whether Biophysics voltage shift of CCc1c(F)cc(F)cc1[C@H]1C(C(=O)OC)=C(C)NC2=C1C(=O)OC2 (single isomer, unassigned) is greater than or equal to -5 mV.
Result: F

Problem: Answer whether Biophysics voltage shift of "C=C(c1c(F)cccc1[C@H]1C(C(=O)OC)=C(C)NC2=C1C(=O)OC2)C(F)(F)F" is greater than or equal to -5 mV.
Result: T

Problem: Answer whether Biophysics voltage shift of COC(=O)C1=C(C)NC2=C(C(=O)OC2)[C@H]1c1cccc(F)c1[C@H]1CC1(F)F (single isomer, unassigned) is greater than or equal to -5 mV.
Result: T

Problem: Answer whether Biophysics voltage shift of C=C(c1c(F)cc(F)cc1[C@H]1C(C(=O)OC)=C(C)NC2=C1C(=O)OC2)C(F)(F)F (single isomer, unassigned) is greater than or equal to -5 mV.
Result: T

Problem: Answer whether Biophysics voltage shift of COC(=O)C1=C(C)NC2=C(C(=O)OC2)[C@H]1c1cccc(F)c1C1CC1 (single isomer, unassigned) is greater than or equal to -5 mV.
Result: T

Problem: Answer whether Biophysics voltage shift of COC(=O)C1=C(C)NC2=C(C(=O)OC2)[C@H]1c1cccc(F)c1[C@@H](F)CF (single isomer, unassigned) is greater than or equal to -5 mV.
Result: F

Problem: Answer whether Biophysics voltage shift of "COC(=O)C1=C(C)NC2=C(C(=O)OC2)[C@H]1c1cccc(F)c1CC(F)F" is greater than or equal to -5 mV.
Result: F

Problem: Answer whether Biophysics voltage shift of COC(=O)C1=C(C)NC2=C(C(=O)OC2)[C@H]1c1cccc(F)c1C(C)C (single isomer, unassigned) is greater than or equal to -5 mV.
Result: F

---

Kindly state Biophysics voltage shift for each of the entries shown.
Molecular target: UniProt:Q13936
Experiment: QPatch channel biophysics assay (current-voltage relationship, V1/2, tau of inactivation), Cav1.2-HEK293(AUX) cell line
Format: cell-based
Set-up: expressed in transfected cells; host or cells: Flp-In 293 T-Rex (HEK293), clone 2-19B, stably transfected with pCMV6-entry-CACNA1C and pcDNA5H/FRT-TO-CACNA2D2-FCS-P2A-CACNB2
Conditions: comparative examples (Table 6)
Form entry: enter the amount, then its unit.

Problem: Fill in the recorded Biophysics voltage shift for this compound, with UniProt:Q13936 as test system: COC(=O)C1=C(C)NC2=C(C(=O)OC2)C1c1ccccc1C(F)(F)F (single isomer, unassigned) [reference compound]
Result: −4.3 mV

Problem: Fill in the recorded Biophysics voltage shift for this compound, with UniProt:Q13936 as test system: CCOC(=O)C1=C(C)NC2=C(C(=O)OC2)[C@H]1c1ccccc1OCc1ccccc1 (single isomer, unassigned) [reference compound]
Result: −15.4 mV

Problem: Fill in the recorded Biophysics voltage shift for this compound, with UniProt:Q13936 as test system: CCOC(=O)C1=C(C)NC2=C(C(=O)OC2)[C@H]1c1ccccc1OC(F)F (single isomer, unassigned) [reference compound]
Result: −6.7 mV

Problem: Fill in the recorded Biophysics voltage shift for this compound, with UniProt:Q13936 as test system: COC(=O)C1=C(C)NC2=C(C(=O)OC2)C1c1ccccc1OC(F)F (single isomer, unassigned) [reference compound]
Result: −7.1 mV
